Target: SARS-CoV-2 Spike Protein (RBD)(R319-F541).mFc (SARS-CoV-2)
Assay: Luminex, supernatant
measuredMetric: MFI (MFI)
Numbers only here, please. The scale is MFI.

| binder | MFI / MFI |
| --- | --- |
| mAb10989 (antibody, V domains shown) VH: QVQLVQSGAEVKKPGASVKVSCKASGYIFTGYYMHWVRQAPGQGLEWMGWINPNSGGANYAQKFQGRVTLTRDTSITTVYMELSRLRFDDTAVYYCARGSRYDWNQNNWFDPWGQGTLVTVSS VL: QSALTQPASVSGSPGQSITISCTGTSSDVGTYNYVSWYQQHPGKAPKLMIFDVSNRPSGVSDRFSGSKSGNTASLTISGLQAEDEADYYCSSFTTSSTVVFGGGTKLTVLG | 19600 |

Prompt: Return reported MFI; argument: mAb10967 (antibody, V domains shown) VH: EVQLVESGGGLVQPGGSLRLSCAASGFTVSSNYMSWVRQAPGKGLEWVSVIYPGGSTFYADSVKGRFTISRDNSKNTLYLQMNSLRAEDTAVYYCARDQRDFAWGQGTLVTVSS VL: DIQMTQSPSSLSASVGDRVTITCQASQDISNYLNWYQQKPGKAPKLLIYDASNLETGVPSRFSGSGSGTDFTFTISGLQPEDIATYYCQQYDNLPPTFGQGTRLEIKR
Response: 29600

Prompt: # input binder: mAb10986 (antibody, V domains shown) VH: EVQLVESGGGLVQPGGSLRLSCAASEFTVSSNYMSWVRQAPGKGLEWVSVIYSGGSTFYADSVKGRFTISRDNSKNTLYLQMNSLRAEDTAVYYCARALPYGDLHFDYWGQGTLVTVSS VL: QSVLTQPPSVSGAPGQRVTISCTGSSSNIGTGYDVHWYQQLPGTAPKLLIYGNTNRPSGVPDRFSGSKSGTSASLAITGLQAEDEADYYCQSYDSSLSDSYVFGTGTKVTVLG ; wanted: its MFI
Response: 28400

Prompt: MFI lookup needed for mAb10938 (antibody, V domains shown) VH: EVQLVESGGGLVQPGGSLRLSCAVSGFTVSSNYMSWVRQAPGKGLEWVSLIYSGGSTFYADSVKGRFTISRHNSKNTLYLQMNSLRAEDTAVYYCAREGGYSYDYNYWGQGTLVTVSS VL: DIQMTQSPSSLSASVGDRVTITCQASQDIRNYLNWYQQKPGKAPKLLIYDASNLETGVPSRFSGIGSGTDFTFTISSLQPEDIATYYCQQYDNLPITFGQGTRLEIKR , thanks.
Response: 30500

Prompt: Looking for the measured MFI of mAb10971 (antibody, V domains shown) VH: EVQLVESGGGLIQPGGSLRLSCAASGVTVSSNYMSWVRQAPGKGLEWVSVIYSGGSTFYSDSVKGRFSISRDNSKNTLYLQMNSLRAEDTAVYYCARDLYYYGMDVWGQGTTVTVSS VL: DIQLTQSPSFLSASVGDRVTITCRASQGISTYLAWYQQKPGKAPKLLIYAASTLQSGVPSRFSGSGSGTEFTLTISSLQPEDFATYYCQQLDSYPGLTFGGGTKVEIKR , can you help?
Response: 28700
